assay explanation: NCI Yeast Anticancer Drug Screen. Data for the bub3 strain (AID 167)
test conditions: S. cerevisiae bub3 mutant strain, at 3.7 µM, active compounds read high
Compounds without any hit were thinned out: in the full panel of roughly 79,000, 15% have a hit. Activity calls are given as the source filed them. No stated cut-off is given here; in the data, active means growth inhibition above about 70%; inactive means the rest.
experimental readout: growth inhibition

>>> result("Cc1ccc2nc(-c3cccc([N+](=O)[O-])c3)oc(=O)c2c1")
"-23% (inactive)"
>>> result("Cc1cc2cc3cc(C)c(N)cc3nc2cc1N")
"-5% (inactive)"
>>> result("COC(=O)/C=C(/C(=O)OC)C(Cl)(Cl)Cl")
"6% (inactive)"
>>> result("CCOC(=O)[C@H]1Nc2ccc(OC)cc2C2c3ccccc3CC21 (stereo partly drawn)")
"-19% (inactive)"
>>> result("c1ccc(CCN2CCc3ccccc3C2)cc1")
"-1% (inactive)"
>>> result("CCOC(=O)c1ccc(NC(=O)O/N=C(/Cl)C(C)C)cc1")
"18% (inactive)"
>>> result("Cc1ccc(NC(c2ccccc2)c2ccc3cccnc3c2O)cc1 (stereo not drawn)")
"-1% (inactive)"
>>> result("O=C1/C(=C/c2ccccc2)CCCC1CN1CCCCC1 (stereo not drawn)")
"53% (inactive)"
>>> result("C[C](C)(C)[Ge]([O][Ge]([c]1ccccc1)[c]1ccccc1)([O][Ge]([c]1ccccc1)[c]1ccccc1)[C](C)(C)C")
"4% (inactive)"
>>> result("NC(N)=NS(=O)(=O)c1ccc(Nc2c3ccccc3nc3c(C(=O)NCCO)cccc23)cc1")
"-1% (inactive)"
>>> result("CN(C)CCNc1ccc2ncnc3c2c1C(=O)c1ccccc1-3")
"-2% (inactive)"
>>> result("CCC(C)OC(=O)Nc1ccc(C)c(NC(=O)OC(C)CC)c1 (stereo not drawn)")
"-2% (inactive)"
>>> result("CCOC(=O)c1cc([N+](=O)[O-])c(Sc2ncnc3nc[nH]c23)c([N+](=O)[O-])c1")
"-7% (inactive)"
>>> result("Cc1cc(O)c(C(C)C)cc1C1(c2cc(C(C)C)c(O)cc2C)OC(=O)c2ccccc21")
"1% (inactive)"
>>> result("CCCC/C=C/C(C)(C(=O)OCC)C(=O)OCC")
"-5% (inactive)"
>>> result("COC(=O)C1=C(C(=O)OC)C(C(=O)OC)C(C(=O)OC)C(C(=O)OC)(C(=O)OC)C(C(=O)OC)=C1C(=O)OC (stereo not drawn)")
"-13% (inactive)"
>>> result("Oc1ccc2ccccc2c1CCc1c(O)ccc2ccccc12")
"2% (inactive)"
>>> result("CC(C)(C)N=C(NO)c1ccccc1")
"-9% (inactive)"
>>> result("Nc1nc(N)c2nc(CNc3ccc(C(=O)NC(CCC(=O)O)C(=O)O)cc3F)cnc2n1 (stereo not drawn)")
"6% (inactive)"
>>> result("CC(=O)Nc1ccc2c(c1)Cc1cc(N=C3C=CC(=O)O3)ccc1-2")
"7% (inactive)"
>>> result("COc1ccc(C(=O)c2ccccc2C(=O)c2ccccc2OC)cc1")
"3% (inactive)"
>>> result("CCCCCCCCCCCC1=NCCO1")
"-27% (inactive)"
>>> result("COC(=O)CC1(O)C(/C=C/c2ccccc2)C(C(=O)OC)C(=O)C(C(=O)OC)C1C(=O)OC (stereo not drawn)")
"-5% (inactive)"

###

assay explanation: NCI Yeast Anticancer Drug Screen. Data for the mlh1 rad18 strain (AID 175)
test conditions: S. cerevisiae mlh1 rad18 strain growth inhibition; at 50.0 µM; active compounds read high
Compounds without any hit were thinned out: in the full panel of roughly 79,000, 15% have a hit.
experimental readout: growth inhibition (%)

>>> result_number("O=[N+]([O-])c1cc(F)c(F)cc1Sc1cc(F)c(F)cc1[N+](=O)[O-]")
98.6
>>> result_number("CCCCC/C(=C(\\C#N)C(=O)OCC)c1ccccc1")
44.4
>>> result_number("CNCCCNc1c2ccccc2nc2cccc([N+](=O)[O-])c12")
85.3
>>> result_number("CCCCOP(=O)(CCCP(=O)(OCCCC)OCCCC)OCCCC")
42.2
>>> result_number("O=C(CC(=O)n1nc(-c2ccccc2)c(N=Nc2ccc(Cl)cc2)c1-c1ccccc1)Nc1cccc(Cl)c1")
57.1
>>> result_number("Cc1ccc2c3ccc4c(c3n(C)c2c1)C(=O)C=CC4=O")
68
>>> result_number("O=C1C=C(Cl)C(=O)C(c2ccc(Cl)cc2)=C1")
91.6
>>> result_number("CCCCCCCCCCCC(O)S(=O)(=O)O (stereo not given)")
17.4
>>> result_number("NC(=O)C(=O)NNc1ccccc1")
82.7
>>> result_number("Cc1cc(C(C)(C)C)c(OCCCN2CCOCC2)c(C(C)(C)C)c1")
83.8

###

# maps each entry to its growth inhibition
assay explanation: NCI Yeast Anticancer Drug Screen. Data for the CLN2oe strain (AID 163);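 further: 0% = growth of vehicle-only control cultures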
test conditions: S. cerevisiae CLN2oe strain, at 1.2 µM, active compounds read high
Compounds without any hit were thinned out: in the full panel of roughly 79,000, 15% have a hit. The source made the active and inactive calls. No stated cut-off is given here; in the data, active means growth inhibition above about 70%; inactive means the rest.
experimental readout: growth inhibition

>>> result("CCOC(=O)C#Cc1ccc([N+](=O)[O-])cc1")
"1% (inactive)"
>>> result("CC1CC(C)(C)CC(OCCN2CCCCC2)(c2ccccc2)C1 (configuration not stated)")
"2% (inactive)"
>>> result("COc1cc2cc3c4cc(OC)c(OC)cc4cc[n+]3c(C)c2cc1OC")
"-22% (inactive)"
>>> result("CN(C)CCNc1ccc2ncnc3c2c1C(=O)c1ccccc1-3")
"5% (inactive)"
>>> result("CC(C)OC(=O)c1ccc(CCc2cc(O)c(Br)cc2O)cc1")
"-5% (inactive)"
>>> result("Oc1ccc2ccccc2c1CCc1c(O)ccc2ccccc12")
"7% (inactive)"
>>> result("CN(C)c1ccc(C2CC(C)(O)Oc3cc4c(cc32)OCO4)cc1 (configuration not stated)")
"-5% (inactive)"

###

assay explanation: NCI Yeast Anticancer Drug Screen. Data for the mlh1 strain (AID 171);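 further: 0% = growth of vehicle-treated control cultures of the same strain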
test conditions: S. cerevisiae mlh1 strain growth inhibition; at 1.2 µM; active compounds read high
The panel holds about 79,000 compounds, 15% with a hit somewhere; the sample as a whole holds those more often.
experimental readout: growth inhibition (%)

>>> result_number("CCOC1=C/C(=N\\Nc2ccc([N+](=O)[O-])cc2)CCC1")
0
>>> result_number("O=C(Oc1ccc2c(c1)CN(Cc1ccccc1)CO2)c1ccccc1")
6
>>> result_number("Cc1ccc(CC2(OCCN(C)C)CCC(C(C)(C)C)CC2)cc1 (centres undefined)")
3
>>> result_number("CCN(CC)CCOc1cc(C)c2cc(Cc3ccccc3)ccc2n1")
0

###

assay explanation: NCI Yeast Anticancer Drug Screen. Data for the mec2-1 strain (AID 157)
test conditions: S. cerevisiae mec2-1 strain, at 5.0 µM (retest, dose inferred, filed as 0.5)
About 79,000 compounds went through this panel and 15% of them were active in at least one assay; those are over-represented in the sample as a whole. Active and inactive are the calls of the source. Cut-off read from the data, not from the text of the source: active = growth inhibition above about 70%; inactive = the rest.
Labels: Yes for active, No for inactive

>>> classification("CC(C)C(C)/C=C\\C(C)C1CCC2C3=CC=C4CC(O)CCC4(C)C3CCC21C (stereo unspecified)")
"Yes"
>>> classification("Cc1nc2ccccc2nc1NNc1ccccc1")
"No"
>>> classification("CCCCCCC(O)CNCc1ccnc2ccc(OC)cc12 (stereo unspecified)")
"No"
>>> classification("CCCCc1ccc(-n2c(C)c(COC(=O)NC)c(COC(=O)NC)c2C)cc1")
"No"
>>> classification("CCOC1=C/C(=N\\Nc2ccc([N+](=O)[O-])cc2)CCC1")
"No"
>>> classification("CCN(CC)CCNc1ccc2ncn3c4cc(OC)c(OC)c(=O)c4c(O)c1c23")
"No"
>>> classification("O=C1NC(=O)c2ccc([N+](=O)[O-])c3cccc1c23")
"No"
>>> classification("O=c1c2ccccc2nc(-c2ccccc2)n1O")
"No"
>>> classification("Cc1cc2cc3cc(C)c(N)cc3nc2cc1N")
"Yes"
>>> classification("Nc1nc(N)c2nc(CNc3ccc(C(=O)NC(CCC(=O)O)C(=O)O)cc3F)cnc2n1 (stereo unspecified)")
"No"
>>> classification("O=C(CSC(=S)N1CCCCC1)Nc1nc2c(s1)CCCC2")
"No"

###

assay explanation: NCI Yeast Anticancer Drug Screen. Data for the wt1 strain (AID 149);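 further: 0% = growth of vehicle-treated wt1 cultures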
test conditions: S. cerevisiae wt1 strain (SPY 50644) growth inhibition; at 33.0 µM; active compounds read high
About 79,000 compounds went through this panel and 15% of them were active in at least one assay; those are over-represented in the sample as a whole. Active and inactive are the calls of the source. Rule as the data show it: active = growth inhibition above about 70%; inactive = the rest.
experimental readout: growth inhibition

>>> result("Cc1c2cc[n+](Cc3ccc(I)cc3)cc2c(C)c2c1[nH]c1ccccc12")
"98% (active)"
>>> result("C#CCN(Cc1ccc2nc(N)[nH]c(=O)c2c1)c1ccc(C(=O)NC(CCC(=O)O)C(=O)O)cc1 (centres undefined)")
"17% (inactive)"
>>> result("S=C1SCN(C2CCCCC2)CN1C1CCCCC1")
"-21% (inactive)"
>>> result("CS(=O)(=O)OCCN(CCOS(C)(=O)=O)c1ccc(C=Nc2ccc(-c3csc(COc4ccccc4)n3)cc2)cc1")
"90% (active)"
>>> result("CNC(=O)OCc1c(COC(=O)NC)c2n(c1C)-c1ccc(OC)cc1CCC2")
"96% (active)"
>>> result("NC(=O)c1c([N+](=O)[O-])cc(C(F)(F)F)cc1[N+](=O)[O-]")
"2% (inactive)"
>>> result("CC(=O)OC1CCC2(C)C(=CC(C3C=C4CC(OC(C)=O)CCC4(C)C4=C3C3CC5OC6(CCC(C)CO6)C(C)C5C3(C)CC4)C3=C2CCC2(C)C3CC3OC4(CCC(C)CO4)C(C)C32)C1 (centres undefined)")
"9% (inactive)"
>>> result("O=C(CSC(=S)N1CCCCC1)Nc1nc2c(s1)CCCC2")
"3% (inactive)"
>>> result("N/C(=N/N=C/c1cc(Br)cc(Br)c1O)NO")
"90% (active)"
>>> result("COc1nc2c(c(=O)n1C)N=C(c1ccccc1)[C@H](C(CC(=O)c1ccccc1)c1ccccc1)C(c1ccccc1)N2 (some centres undefined)")
"6% (inactive)"
>>> result("CCC(C)(C)c1ccc(Oc2cccc(C(=O)O)c2)cc1")
"49% (inactive)"
>>> result("COc1ccc2c(c1)n([O-])c1ccccc1[n+]2=O")
"24% (inactive)"
>>> result("CCCCCCCCCCCCCCCCOP(=O)(O)OCC(N)C(=O)O (centres undefined)")
"98% (active)"
>>> result("CC(=O)ON=C1C=CC(=C(C#N)c2ccc(Cl)cc2)C=C1")
"10% (inactive)"
>>> result("CCN(CC)CCNc1ccc([N+](=O)[O-])c2nc3ccccc3c(N)c12")
"-9% (inactive)"
>>> result("COC(=O)Oc1cc(Cl)c(Cl)cc1Cl")
"-4% (inactive)"
>>> result("CC(O)=NC(Cc1ccc2ccccc2c1)C(O)=NC(Cc1ccc(Cl)cc1)C(O)=NC(Cc1c[nH]c2ccccc12)C(O)=NC(CO)C(O)=NC(Cc1ccc(O)cc1)C(O)=NC(CCCN=C(N)N)C(O)=NC(CC(C)C)C(O)=NC(CCCN=C(N)N)C(=O)N1CCCC1C(O)=NC(C)C(=N)O (centres undefined)")
"-3% (inactive)"
>>> result("CCCCCCCCCCCC1N=C(N)NC(CCCO)=C1C(=O)OC (centres undefined)")
"99% (active)"
>>> result("COc1cc(CSc2ccc(O)cc2)cc(O)c1O")
"-2% (inactive)"
